target: TF (Innovin) (UniProt P13726 33-295, limits assumed); test: cell-based or functional assay

binder: anti-TF HuMab 003 (antibody, V domains shown, Human monoclonal antibody from HuMab mice; also called HuMab-TF-003) VH: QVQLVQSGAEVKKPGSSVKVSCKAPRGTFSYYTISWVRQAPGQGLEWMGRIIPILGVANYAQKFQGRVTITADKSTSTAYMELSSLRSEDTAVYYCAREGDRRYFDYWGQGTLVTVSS VL: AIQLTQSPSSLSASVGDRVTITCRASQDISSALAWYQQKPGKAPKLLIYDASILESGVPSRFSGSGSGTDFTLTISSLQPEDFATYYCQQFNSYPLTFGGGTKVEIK
% max inhibition of FXa generation [%]: 21
